test system: 786-0 renal; assay: NCI-60 one-dose screen, 48 h (100 = growth as untreated, 0 = no growth, -100 = all killed); settings: 10 µM
Compounds without any hit were thinned out: in the full panel of roughly 83,000, 20% have a hit.
value-kind: growth (%)
Could you give me the number in %? Just the number is fine.

Completed entries (count: 5):
{"columns": ["molecule", "value-kind", "value-unit", "quantitative-result"],
 "data": [
  ["COc1ccc(/C=C2/CN(C(=O)c3ccccc3F)C/C(=C\\c3ccc(OC)cc3)C2=O)cc1", "growth", "%", 56.9],
  ["Cc1cc(C)c(CCc2cc(C)c(C)cc2C)cc1C", "growth", "%", 108],
  ["Clc1cc2c(c(CSc3nc4ccccc4n4cccc34)c1)OCOC2", "growth", "%", 93.4],
  ["O=C1/C(=C\\c2ccc(Br)cc2)CN(C(=O)c2ccccc2F)C/C1=C\\c1ccc(Br)cc1", "growth", "%", -52.4],
  ["Fc1cc(C(F)(F)F)ccc1-c1cncnc1NC1CCCCCC1", "growth", "%", 97.9]
]}

Find the measured growth of CC(C)=NNc1ncnc2c1ncn2C1OC(CO)C(O)C1O (stereo not given) and report it.
35

Please look at this molecule and report its growth: O=C1/C(=C\c2cn(C(=O)c3ccc(Cl)cc3)c3ccccc23)c2ccccc2N1C(=O)c1ccc(Cl)cc1
93.7

----------
test system: A549/ATCC NSCLC; assay: NCI-60 one-dose screen, 48 h (100 = growth as untreated, 0 = no growth, -100 = all killed); conditions: 10 µM
About 83,000 compounds went through this panel and 20% of them were active in at least one assay; those are over-represented in the sample as a whole.
List of growth values.
Reply with just the number (in %).

{"columns": ["item-smiles", "measured-target", "quantitative-result"],
 "data": [
  ["N=c1nc(N)ncn1-c1ccccc1", "A549/ATCC NSCLC", 92.4],
  ["Cc1ccc(NC(=O)NC2CCCCC2)cc1", "A549/ATCC NSCLC", 91.5]
]}

Please list growth recorded for the molecule O=c1c2ccccc2nc(SCCN2CCCCC2)n1CCc1ccccc1
87.9

----------
test system: HCC-2998 colon; test: NCI-60 one-dose screen, 48 h (100 = growth as untreated, 0 = no growth, -100 = all killed); details: 10 µM
About 83,000 compounds went through this panel and 20% of them were active in at least one assay; those are over-represented in the sample as a whole.
Items are presented alongside their recorded growth.
Quick note: give the figure in %, leave out the unit.

Solved entries:
{"columns": ["molecule", "growth / %"],
 "data": [
  ["CC(=O)C1CCC2C3CC(F)C4=CC(=O)CCC4(C)C3C(O)CC12C (stereo not given)", 105],
  ["CCOC(=O)C(=Cc1ccc(Br)cc1)C(=O)OCC", -82.2],
  ["N=C(N)c1ccc(-c2ccc(-c3ccccc3)o2)nc1", 27.5],
  ["CC1(C)N=C(N)N=C(N)N1c1ccc(CCc2ccccc2)c(Cl)c1", 15.3],
  ["N=c1c2c(-c3ccccc3)c(-c3ccccc3)n(Cc3ccccc3)c2ncn1CCCO", 64.3]
]}

For HCC-2998 colon, give the measured growth of the entry O=[N+]([O-])c1ccc(Oc2cc(Cl)c(Cl)cc2Cl)c(C(F)(F)F)c1
123

Provide growth, system HCC-2998 colon, entry CCOC(=O)C1CCc2c(ccc3ccccc23)N1CCC#N (stereo not given)
93.5

Please report the measured growth for Nc1ncnc2[nH]c(=O)[nH]c12 tested on HCC-2998 colon.
111

Given COc1ccc2c(c1)C(=O)c1c-2c(OCCN(C)C)nc2ccccc12 , report its growth on HCC-2998 colon.
44.9

Check HCC-2998 colon data and give growth for Cc1ccc(S(=O)(=O)OCCN(CCOS(=O)(=O)c2ccc(C)cc2)c2c[nH]c(=O)[nH]c2=O)cc1 .
128

Specify the recorded growth for COc1ccc(CN2CCC(N3CCCC3=O)c3cc(Cl)ccc32)cc1 (stereo not given) , system: HCC-2998 colon.
105

For HCC-2998 colon, give the measured growth of the entry COc1cc(NC(=O)CCSc2nc3ccc(Cl)cc3c(=O)n2Cc2ccccc2)cc(OC)c1OC
100

Provide measured growth on HCC-2998 colon for CN1CCC(CNc2cc(C3(C(=O)Nc4cc(C(=O)Nc5ccc(Cl)c(C(F)(F)F)c5)ccc4F)CC3)ncn2)CC1 please.
22.8

Give measured growth for O=C(N/N=C/c1ccccc1)C(Oc1ccccc1)c1ccccc1 (stereo not given) (HCC-2998 colon).
97.3

GET growth | system: HCC-2998 colon | item: C[N+](C)(C)c1ncnc2nc[nH]c12
-10.1

Give growth; test system HCC-2998 colon; molecule COc1ccc(OC)c(/C=C/c2nc(SCc3ccccc3)n(-c3ccc(Cl)cc3)n2)c1
73.1

State measured growth of the molecule O=C(Nc1cccc(-n2cc(-c3ccncc3)c(-c3ccc(O)c(Cl)c3)n2)c1)Nc1cccc(C(F)(F)F)c1 with HCC-2998 colon.
20.4

Given Clc1ccc(Sc2nc(NC3CC3)nc(Sc3ccc(Cl)cc3)n2)cc1 , report its growth on HCC-2998 colon.
90.2

System HCC-2998 colon. Read-out growth. Item O=C(Nc1cccc(Br)c1)c1cc(=O)[nH]c2ccccc12 . Report value.
104

Write down measured growth (HCC-2998 colon) for this molecule. COc1ccc(-c2nn(-c3cccc(NC(=O)Nc4cc(C(F)(F)F)cc(C(F)(F)F)c4)c3)cc2-c2ccncc2)cc1Cl
8.03

Enter growth (test system HCC-2998 colon) for Oc1[nH]c2ccc(Cl)cc2c1/C=c1/ccc2c(c1)N=C(c1cccs1)N=2
88.6

Give measured growth for COc1cc(NC(=O)CCSc2nc3ccc(C)cc3c(=O)n2Cc2ccccc2)cc(OC)c1OC (HCC-2998 colon).
112

Specify growth for COc1ccc(-c2cc(/C=C3\C(=O)Nc4ccc(Cl)cc43)[nH]n2)cc1OC , system HCC-2998 colon.
103

Report value only: growth, HCC-2998 colon, CN1CCCNc2c(c(=O)c2=O)NCCCN(C)CCCNc2c(c(=O)c2=O)NCCCN(C)CCCNc2c(c(=O)c2=O)NCCCN(C)CCCNc2c(c(=O)c2=O)NCCCN(C)CCCNc2c(c(=O)c2=O)NCCCN(C)CCCNc2c(c(=O)c2=O)NCCCN(C)CCCNc2c(c(=O)c2=O)NCCC1
70.6

Under HCC-2998 colon: report growth of CCN(CC)CCCOCCCNc1cc(OC)cc2cccnc12 .
83.9
